- testedSystem: DLG2_3, Q15700
- methodNotes: holdup assay
- Set-up: key: below the threshold = too weak to quantify, mostly under pKd 3.1 to 4
- measurementParameters: plain residues with an end cap or a label only (N-terminal biotin on a linker: ahx)
readoutLabel: pKd

Study these solved cases before continuing.
[[record]]
binder = "SKKNELFSNL [NHERF1, O14745]"
observed = "below the threshold"

[[record]]
binder = "VNENQKEYFF [CNTNAP4, Q9C0A0]"
observed = "below the threshold"

[[record]]
binder = "SAPATLSSRA [PDLIM2, Q96JY6]"
observed = "below the threshold"

[[record]]
binder = "KEYDDELTFF [USH1C, Q9Y6N9]"
observed = "below the threshold"


Prompt line: Returns the measured pKd for the input binder. Input: PKMKLNETSF [SHKBP1, Q8TBC3]
Response line: below the threshold
